Test system: human ABCB11 mRNA
Assay: ASO treatment of primary human hepatocytes (PHH), ABCB11 mRNA by RT-qPCR normalized to B2M
Assay type: cell-based
Conditions: primary human hepatocytes, 5 μM ASO, normalized to untreated PHHs (UNT)
Strand notation (5' to 3'): a small letter for the sugar, then the base; units joined by * are phosphorothioate-linked, units joined directly phosphodiester-linked; [ ] holds rarer units or linkages, { } end groups; capitals alone tell only the bases. e = 2'-O-(2-methoxyethyl) (MOE); l = locked nucleic acid (LNA); [5mC] = 5-methylcytosine; d = 2'-deoxy (DNA)
Endpoint Label: ABCB11 mRNA FC (5 μM ASO vs. UNT)
Show the value, then the unit it is measured in.

Looking for the measured ABCB11 mRNA FC (5 μM ASO vs. UNT) of CO-7061 (eT*e[5mC]*eT*lG*eG*lA*eA*lA*eA*lT*eA*lA*eT*lG*e[5mC]*l[5mC]*eT*lT*eT*e[5mC]; antisense) , can you help?
1.261 fold change

Proceed to CO-7001 (antisense eG*eT*eG*eA*lG*eG*e[5mC]*eA*lT*e[5mC]*eA*eG*lGeT*eA*eA*lG*eT*eT*e[5mC])
1.237 fold change

Proceed to CO-4017 (antisense e[5mC]*eT*eG*e[5mC]*eT*e[5mC]*eA*eA*eA*eG*eT*eA*eA*eA*eA*eA*eT*eA*e[5mC]*e[5mC])
1.228 fold change

Proceed to CO-4032 (antisense eA*eG*eT*e[5mC]*e[5mC]*eA*eT*eT*eA*eT*eT*eT*e[5mC]*e[5mC]*eT*e[5mC]*eT*eG*eG*e[5mC])
1.311 fold change

Proceed to CO-7059 (eT*e[5mC]*eT*lG*eG*dA*dA*lA*dA*dT*dA*lA*dT*dG*d[5mC]*l[5mC]*eT*eT*eT*e[5mC]; antisense)
1.023 fold change

Proceed to CO-7190: derivative ASO with additional chemical modifications based on parent ASO CO-4535 (antisense eT*eG*lG*e[5mC]*eG*lT*eT*eA*lT*eT*eA*lA*eT*eT*l[5mC]*eT*eA*l[5mC]*eA*eG)
1.641 fold change

Proceed to CO-7094 (eA*e[5mC]*e[5mC]*e[5mC]*l[5mC]*e[5mC]*e[5mC]*eT*l[5mC]*eA*e[5mC]e[5mC]*lT*eT*eG*eG*lT*eT*e[5mC]*e[5mC])
0.993 fold change

Proceed to CO-7169 (antisense eT*eT*eA*eT*eT*eT*eG*eG*e[5mC]*eG*eT*eT*eA*eT*eT*eA*eA*eT*eT*e[5mC])
1.289 fold change

Proceed to CO-4524 (antisense e[5mC]*eA*eG*eA*eG*eA*eA*eA*e[5mC]*e[5mC]*eT*eA*eA*eA*eA*eT*eT*eG*eA*eG)
1.243 fold change

Proceed to CO-7109 (eA*e[5mC]*eA*eT*eT*lT*dA*dG*lA*dG*dA*d[5mC]*dA*lA*dA*dG*lA*eA*eT*e[5mC]*eG*e[5mC]; antisense)
1.043 fold change

Proceed to CO-6676 (antisense eT*eA*eA*eA*eG*e[5mC]*eA*eA*eG*e[5mC]*eT*eG*eT*eG*eT*eG*eG*eA*eA*eG)
1.204 fold change

Proceed to CO-4011 (antisense eT*e[5mC]*e[5mC]*eA*eA*e[5mC]*eA*e[5mC]*e[5mC]*eG*eT*eA*e[5mC]*eT*e[5mC]*eA*eT*eT*eT*e[5mC])
1.184 fold change

Origin of the recorded values: patent US20250320496A1
